target: 生物素化的SARS-CoV-2 RBD (SARS-CoV-2, UniProt P0DTC2 319-541); test: ELISA screen, Fab culture supernatant on streptavidin-captured biotinylated RBD

Binder	binding result
CB6-38 (轻链突变库克隆) (Fab, V domains shown, also called CB6-38-VL; CB6-38-LC) VH: EVQLVESGGGLVQPGGSLRLSCAASGFTVSSNYMSWVRQAPGKGLEWVSVIYSGGSTFYADSVKGRFTISRDNSMNTLFLQMNSLRAEDTAVYYCARVLPMYGDYLDYWGQGTLVTVSS VL: DIVMTQSPSSLSASVGDRVTITCRASQNIERYLNWYQQKPGKAPKLLIYAASSLQSGVPSRFSGSGSGTDFTLTISSLQPEDFATYYCQQSASSTPEYTFGQGTKLEIK	binds
CB6-41 (轻链突变库克隆) (Fab, V domains shown, also called CB6-41-VL; CB6-41-LC) VH: EVQLVESGGGLVQPGGSLRLSCAASGFTVSSNYMSWVRQAPGKGLEWVSVIYSGGSTFYADSVKGRFTISRDNSMNTLFLQMNSLRAEDTAVYYCARVLPMYGDYLDYWGQGTLVTVSS VL: DIVMTQSPSSLSASVGDRVTITCRASQAIAYYLNWYQQKPGKAPKLEIYAASSLQSGVPSRFSGSGSGTDFTLTISSLQPEDFATYYCQQSPSAFPEYTFGQGTKLEIK	binds
CB6-40 (轻链突变库克隆) (Fab, V domains shown, also called CB6-40-VL; CB6-40-LC) VH: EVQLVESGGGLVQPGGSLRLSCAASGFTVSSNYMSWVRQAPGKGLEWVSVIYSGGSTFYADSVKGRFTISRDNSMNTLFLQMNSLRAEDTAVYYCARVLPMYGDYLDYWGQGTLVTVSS VL: DIVMTQSPSSLSASVGDRVTITCRASQKISQYLNWYQQKPGKAPKLLIYAASSLQSGVPSRFSGSGSGTDFTLTISSLQPEDFATYYCQQSTSFMPEYTFGQGTKLEIK	binds

From: patent CN115073593A
